Item-by-item account of Emax
biological target: sGC α1/β1 heterodimer (Homo sapiens (Human), UniProt Q02108+Q02153); assay: Cell-based sGC functional assay (cyclic GMP assay for sGC activator: CASA assay); settings: CHO-K1, activity expressed as percentage of compound A (standard); CHO-K1/sGC cells; read-out: % Activation
Sequence (Q02108 whole entry): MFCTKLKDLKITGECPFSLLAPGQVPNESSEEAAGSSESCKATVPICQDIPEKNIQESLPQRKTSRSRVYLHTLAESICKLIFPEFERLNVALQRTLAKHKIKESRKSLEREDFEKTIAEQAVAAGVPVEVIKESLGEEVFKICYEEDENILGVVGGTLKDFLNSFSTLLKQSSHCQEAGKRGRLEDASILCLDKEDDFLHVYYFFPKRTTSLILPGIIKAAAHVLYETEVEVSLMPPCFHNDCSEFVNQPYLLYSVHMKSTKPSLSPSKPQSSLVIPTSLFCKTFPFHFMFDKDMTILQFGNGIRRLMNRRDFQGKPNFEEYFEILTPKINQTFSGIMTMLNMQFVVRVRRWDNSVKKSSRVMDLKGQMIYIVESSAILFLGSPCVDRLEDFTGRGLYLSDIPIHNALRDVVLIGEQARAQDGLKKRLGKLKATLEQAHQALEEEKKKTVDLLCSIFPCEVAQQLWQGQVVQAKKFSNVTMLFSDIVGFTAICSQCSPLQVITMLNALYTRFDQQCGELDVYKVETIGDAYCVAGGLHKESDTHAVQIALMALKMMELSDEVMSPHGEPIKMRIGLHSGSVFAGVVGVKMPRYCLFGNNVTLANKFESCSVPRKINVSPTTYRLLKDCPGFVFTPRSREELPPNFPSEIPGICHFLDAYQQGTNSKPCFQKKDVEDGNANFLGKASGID
Sequence (Q02153 whole entry): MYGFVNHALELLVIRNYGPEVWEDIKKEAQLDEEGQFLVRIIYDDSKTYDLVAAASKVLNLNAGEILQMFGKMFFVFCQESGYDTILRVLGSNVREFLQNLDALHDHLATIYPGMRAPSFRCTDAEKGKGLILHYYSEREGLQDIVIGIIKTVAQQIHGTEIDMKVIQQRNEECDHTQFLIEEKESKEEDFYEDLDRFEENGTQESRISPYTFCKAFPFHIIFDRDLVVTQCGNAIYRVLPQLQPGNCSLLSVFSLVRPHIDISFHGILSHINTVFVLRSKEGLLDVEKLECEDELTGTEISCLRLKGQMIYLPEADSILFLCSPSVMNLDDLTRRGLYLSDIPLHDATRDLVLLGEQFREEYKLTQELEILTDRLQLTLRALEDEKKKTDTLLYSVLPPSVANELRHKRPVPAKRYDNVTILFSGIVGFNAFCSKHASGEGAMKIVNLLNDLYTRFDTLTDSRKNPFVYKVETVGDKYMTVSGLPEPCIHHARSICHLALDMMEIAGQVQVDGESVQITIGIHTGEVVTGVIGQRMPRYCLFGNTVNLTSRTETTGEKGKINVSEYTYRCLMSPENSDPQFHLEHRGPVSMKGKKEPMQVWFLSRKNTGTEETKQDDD
Report as a plain number; the unit % is understood.

Worked examples follow.
CC(C)(Cn1cc(C2(C)C(=O)Nc3nc(-c4nn(CCC(F)(F)C(F)(F)F)c5ncccc45)nc(N)c32)cn1)C(=O)O (stereo not shown) [Example 144A]	93.1
CC1(c2nn(CC(=O)O)c(=O)o2)C(=O)Nc2nc(-c3nn(CCC(F)(F)C(F)(F)F)c4cc(Cl)ccc34)nc(N)c21 (stereo not shown) [Example 98A]	83
CC(C)(Cc1coc(C2(C)C(=O)Nc3nc(-c4nn(Cc5ccccc5F)c5cc(Cl)ccc45)nc(N)c32)n1)C(=O)O (stereo not shown)	126
C[C@@]1(c2ccc(CCC(=O)O)cc2)C(=O)Nc2nc(-c3nn(CC4CCCCO4)c4cc(Cl)ccc34)nc(N)c21 (single isomer, unassigned)	85

Alright, here's another compound for you.
Asked: Provide value of Emax for this record tested with sGC α1/β1 heterodimer (Homo sapiens (Human), UniProt Q02108+Q02153): CC(C)(Cc1coc(C2(C)C(=O)Nc3nc(-c4nn(Cc5ccccc5F)c5cc(F)ccc45)nc(N)c32)n1)C(=O)O (stereo not shown) [Example 63A]
Given back: 72

From: patent US10030027B2
